These data points were gathered from PubChem BioAssay AID1963964.

System: 997726-040-R-J2-PDC tumor spheroids, viability;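 also: spheroids exposed to compounds for seven days before readout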
test.protocol: Anticancer human tumor 997726-040-R-J2-PDC patient-derived squamous cell lung carcinoma cell line growth inhibition [PI3K]
measurement.conditions: second compound 0.00316 µM; first compound 0.001 µM; hits give low values; spheroids with HUVEC and MSC
Mark each entry class 1 if its viability, T/C sits below 80%, and class 0 for all others.

Below are worked cases with known answers.
CC(C)n1nc(-c2ccc3oc(N)nc3c2)c2c(N)ncnc21 + COc1c(OCCCN2CCOCC2)ccc2c3n(c(=NC(=O)c4cnc(N)nc4)nc12)CCN3	class 1
Cn1ncnc1[C@H]1c2n[nH]c(=O)c3cc(F)cc(c23)N[C@@H]1c1ccc(F)cc1 + COc1c(OCCCN2CCOCC2)ccc2c3n(c(=NC(=O)c4cnc(N)nc4)nc12)CCN3	class 1
CC(=O)c1c(C)c2cnc(Nc3ccc(N4CCNCC4)cn3)nc2n(C2CCCC2)c1=O + CC(Nc1ccc2c(c1)OCCn1cc(N3C(=O)OCC3C(F)F)nc1-2)C(N)=O	class 0
CC(=O)c1c(C)c2cnc(Nc3ccc(N4CCNCC4)cn3)nc2n(C2CCCC2)c1=O + COc1c(OCCCN2CCOCC2)ccc2c3n(c(=NC(=O)c4cnc(N)nc4)nc12)CCN3	class 1

Q: Dear colleague, could you confirm whether viability, T/C of Cn1ncnc1[C@H]1c2n[nH]c(=O)c3cc(F)cc(c23)N[C@@H]1c1ccc(F)cc1 + CC(Nc1ccc2c(c1)OCCn1cc(N3C(=O)OCC3C(F)F)nc1-2)C(N)=O falls below 80%? Thanks.
Ans: class 0

Q: And for CC(C)n1nc(-c2ccc3oc(N)nc3c2)c2c(N)ncnc21 + CC(Nc1ccc2c(c1)OCCn1cc(N3C(=O)OCC3C(F)F)nc1-2)C(N)=O ?
Ans: class 0
